- Test system: K562-Lucena 1
- PROCEDURE SUMMARY: Cytotoxicity against human K562-Lucena 1 cells after 48 hrs by MTT assay
- Type: functional, cell-based
- CONDITION PARAMETERS: K562-Lucena 1, 48 h
pIC50: −log10 of the molar value.
READOUT KIND: pIC50

Input COc1cccc2c1C(=O)c1c(O)c3c(c(O)c1C2=O)C[C@@](O)(C(=O)CO)C[C@@H]3O[C@H]1C[C@H](N)[C@H](O)[C@H](C)O1 [DOXORUBICIN] , output reported pIC50.
< 5.00

Input `C=C(C)C(=O)O[C@H]1C/C(CO)=C/CC[C@@]2(C)O[C@H]2[C@H]2OC(=O)C(=C)[C@@H]21` , output reported pIC50.
5.29

Input `C=C(CO)C(=O)O[C@H]1C/C(COC(C)=O)=C/CC/C(C)=C/[C@H]2OC(=O)C(=C)[C@H]12` , output reported pIC50.
< 5.00

Input C=C(CO)C(=O)O[C@H]1C[C@@]2(C=O)OC2CC/C(C)=C/[C@H]2OC(=O)C(=C)[C@H]12 (stereo not given in full) , output reported pIC50.
< 5.00

Input `C=C(CO)C(=O)O[C@H]1C/C(CO)=C/CC/C(C)=C/[C@H]2OC(=O)C(=C)[C@H]12` , output reported pIC50.
< 5.00
